- System: Fibroblast
- Test: Multiplex assay against human fibroblast
- Format: toxicity, cell-based
- Condition details: 48 h, 1 µM, compound concentration 1 uM, replicate 1
# maps each entry to its Population Mitochondria Different-Phenotype (%)
Attribute measured: Population Mitochondria Different-Phenotype (%)

1. Cl.NCCc1ccc(O)c(O)c1 [DOPAMINE HYDROCHLORIDE]    2
2. CC(C)c1noc(N2CCC(COc3ccc(-c4ccc(S(C)(=O)=O)cc4)nc3)CC2)n1 [GSK-1292263]    1
3. Cc1noc(-c2ccc(-c3ccc(CC(=O)O)cc3)cc2)c1NC(=O)O[C@H](C)c1ccccc1Cl    1
4. Cc1sc2c(c1C)C(c1ccc(Cl)cc1)=N[C@@H](CC(=O)NCCCCCCCCNC(=O)COc1cccc3c1C(=O)N(C1CCC(=O)NC1=O)C3=O)c1nnc(C)n1-2 (some centres not stated)    0
5. CC(/C=C1\SC(=S)N(CCCC(=O)Nc2ccc(C(=O)O)c(O)c2)C1=O)=C\c1ccccc1    2
6. O=C1[C@H](Cc2ccc(O)cc2)N2C(=O)CCN(C(=O)NCc3ccccc3)[C@H]2CN1Cc1cccc2ccccc12    7
7. CCCCCC(O)/C=C/[C@H]1C(=O)CC(O)C1C/C=C\CCCC(=O)O (some centres not stated)    2
8. Cc1cccc(NC(=O)CN2CCC(c3ccccn3)CC2)c1.Cl.Cl    3
9. CC(C)(C)c1cc(NC(=O)Nc2ccc(-c3cn4c(n3)sc3cc(OCCN5CCOCC5)ccc34)cc2)no1 [QUIZARTINIB]    5
10. CN1CCN(c2cc(-c3ccccc3)nc(N)n2)CC1    2
11. CN(C)C(=O)Cn1cc(-c2ccc(-c3cncc4ccccc34)cc2)cn1    8
12. CC[C@@H](C)Nc1nc(C)nc2c(-c3ccc(OC)nc3C)c(C)nn12 [PEXACERFONT]    0
13. COc1ccccc1N1CCN(C[C@@H](C(=O)NC(C)(C)C)c2ccccc2)CC1.Cl.Cl    12
14. COc1cccc2c1c(NS(=O)(=O)c1ccc(Cl)s1)nn2Cc1cccc(CNC(=O)C(C)(C)O)c1    5
15. COC[C@@H](c1ccc(C(F)(F)F)cc1)N1CCN(C2(C)CCN(C(=O)c3c(C)ncnc3C)CC2)C[C@@H]1C.O=C(O)/C=C\C(=O)O [VICRIVIROC MALEATE]    7
16. N#Cc1cc(F)cc(-c2nc(-c3ccc(F)cn3)no2)c1    3
17. C[C@H](N)COC(=O)[C@@H](CCCCN)NC(=O)Cc1c(-c2ccc3ccccc3c2)[nH]c2c1ccc1ccccc12    7
